experimental.system: site-specifically biotinylated C3b (human, UniProt P01024 23-667; P01024 749-1663, site-specifically biotinylated with EZ-link Maleimide-PEG2-biotin)
Sequence (P01024 23-667, chain 1 of 2): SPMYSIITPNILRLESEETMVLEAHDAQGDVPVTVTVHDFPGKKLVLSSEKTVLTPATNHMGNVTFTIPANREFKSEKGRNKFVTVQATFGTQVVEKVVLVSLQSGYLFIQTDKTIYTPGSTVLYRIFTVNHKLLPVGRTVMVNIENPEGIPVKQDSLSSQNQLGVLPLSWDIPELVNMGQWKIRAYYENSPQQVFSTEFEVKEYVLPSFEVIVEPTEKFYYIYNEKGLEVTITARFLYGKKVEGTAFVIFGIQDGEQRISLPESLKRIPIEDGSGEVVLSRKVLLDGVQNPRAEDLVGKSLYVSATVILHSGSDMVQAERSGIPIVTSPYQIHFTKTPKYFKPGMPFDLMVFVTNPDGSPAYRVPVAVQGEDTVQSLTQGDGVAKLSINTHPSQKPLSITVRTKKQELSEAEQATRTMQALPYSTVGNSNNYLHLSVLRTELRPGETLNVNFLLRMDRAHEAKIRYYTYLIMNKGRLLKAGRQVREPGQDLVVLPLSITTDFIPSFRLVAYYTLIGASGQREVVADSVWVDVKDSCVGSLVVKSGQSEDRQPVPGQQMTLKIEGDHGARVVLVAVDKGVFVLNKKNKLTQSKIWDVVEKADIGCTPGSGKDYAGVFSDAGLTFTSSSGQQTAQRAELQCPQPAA
Sequence (P01024 749-1663, chain 2 of 2): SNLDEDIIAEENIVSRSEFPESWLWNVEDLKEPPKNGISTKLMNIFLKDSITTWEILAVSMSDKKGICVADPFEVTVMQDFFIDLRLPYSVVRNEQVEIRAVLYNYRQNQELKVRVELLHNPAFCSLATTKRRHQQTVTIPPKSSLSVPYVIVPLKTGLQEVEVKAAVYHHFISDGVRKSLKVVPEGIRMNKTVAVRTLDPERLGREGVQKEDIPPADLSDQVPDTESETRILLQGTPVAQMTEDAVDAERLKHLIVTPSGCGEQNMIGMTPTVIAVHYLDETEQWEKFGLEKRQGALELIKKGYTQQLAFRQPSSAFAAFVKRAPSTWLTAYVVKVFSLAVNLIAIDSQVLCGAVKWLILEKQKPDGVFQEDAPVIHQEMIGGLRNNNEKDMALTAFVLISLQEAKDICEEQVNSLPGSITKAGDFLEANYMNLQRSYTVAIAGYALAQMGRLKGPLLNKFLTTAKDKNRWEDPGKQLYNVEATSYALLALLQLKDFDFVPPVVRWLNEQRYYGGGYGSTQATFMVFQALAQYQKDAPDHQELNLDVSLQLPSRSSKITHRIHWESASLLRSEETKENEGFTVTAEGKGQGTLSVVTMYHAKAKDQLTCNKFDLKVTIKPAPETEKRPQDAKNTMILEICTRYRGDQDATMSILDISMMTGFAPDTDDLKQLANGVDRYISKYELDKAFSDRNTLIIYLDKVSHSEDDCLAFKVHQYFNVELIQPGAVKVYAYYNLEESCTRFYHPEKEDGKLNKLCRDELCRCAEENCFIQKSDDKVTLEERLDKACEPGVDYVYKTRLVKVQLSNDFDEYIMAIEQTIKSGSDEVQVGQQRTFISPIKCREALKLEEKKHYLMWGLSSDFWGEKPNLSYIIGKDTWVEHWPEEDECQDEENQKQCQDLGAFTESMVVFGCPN
protocol.text: SPR
experimental.readout: Kd
Could you kindly put the unit after your number?

Which Kd reading was recorded for the binder ENLYFQGGSGSGSGICVWQDWGAHRCT (designed binder) [thioredoxin-compstatin fusion protein (TRX-4W9A)] ?
0.77 µM
